Molecular target: 5-hydroxytryptamine receptor 1A (Rattus norvegicus, UniProt P19327)
Sequence (P19327 whole entry): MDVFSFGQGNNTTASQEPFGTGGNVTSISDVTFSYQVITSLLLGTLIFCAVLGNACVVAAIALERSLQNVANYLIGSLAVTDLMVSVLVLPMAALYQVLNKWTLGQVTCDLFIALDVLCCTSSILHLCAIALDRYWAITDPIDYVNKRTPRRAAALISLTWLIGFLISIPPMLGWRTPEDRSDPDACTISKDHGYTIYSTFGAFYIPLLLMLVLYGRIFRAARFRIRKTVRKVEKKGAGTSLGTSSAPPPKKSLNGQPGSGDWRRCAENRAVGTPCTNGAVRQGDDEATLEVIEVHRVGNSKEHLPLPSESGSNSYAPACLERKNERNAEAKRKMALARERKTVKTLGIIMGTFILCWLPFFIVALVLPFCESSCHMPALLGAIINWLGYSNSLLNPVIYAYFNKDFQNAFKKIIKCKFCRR
pKi: −log10 of the molar value.
// note: pKi values for 5-hydroxytryptamine receptor 1A (Rattus norvegicus, UniProt P19327) were reported in different studies
assay_metric: pKi

a: COc1ccc(C(=O)N2CCC(CN3CCC(c4noc5cc(F)ccc45)CC3)CC2)cc1
b: O=C(CCCN1CCC(c2noc3cc(F)ccc23)CC1)c1cc2c3c(c1F)CCN3C(=O)CC2
-- ask Which value of pKi is greater, the one for a or the one for b ? Lab note: record the label of whichever item you select.
-- reply b

1: COc1ccccc1N1CCN(CCCN2C(=O)C[C@H](NC(=O)C3CCCCC3)C2=O)CC1
2: COc1ccccc1N1CCN(CCCOc2ccc(-c3nc4ccccc4o3)cc2)CC1
-- ask Hi! Which is lower in terms of pKi, the first one 1 or the second one 2 ? Lab note: record the label of whichever item you select.
-- reply 1
